These measurements were taken from ChEMBL document CHEMBL1134815.

# measuredOn: Human immunodeficiency virus type 1 reverse transcriptase (Human immunodeficiency virus 1) (UniProt Q72547)
Rule for this label: Yes means IC90 is less than 5 nM; No means IC90 is at least 5 nM.

Use these answered entries as a reference point.
Does the reported IC90 of the following compound sit strictly below 5 nM? COc1c(Cl)ccc2c1C(C#Cc1ccccc1)(C(F)(F)F)NC(=O)N2 (centres undefined) No

hey, is IC90 for O=C1Nc2ccc(Cl)c3c2C(C(F)(F)F)(C=C(c2ccccc2)O3)N1 (centres undefined) lower than 5 nM or not? No

Strictly below 5 nM: is that where IC90 of Fc1ccc2c3c1S/C(=C\c1cccnc1)C3(C(F)(F)F)NC(S)=N2 (centres undefined) sits? No

Bench note: check whether O=C1Nc2ccc(Cl)c3c2C(C(F)(F)F)(C=C(C2CC2)O3)N1 (centres undefined) shows IC90 below 5 nM Yes

Lab note: IC90 threshold 5 nM. Does this compound come in strictly under it? O=C1Nc2ccc(Cl)c3c2C(C(F)(F)F)(C=C(c2cccnc2)O3)N1 (centres undefined) Yes

Is IC90 of O=C1Nc2ccc(Cl)c(O)c2C(C#CC2CC2)(C(F)(F)F)N1 (centres undefined) strictly below 5 nM? Yes

Below 5 nM on IC90? Entry O=C1Nc2ccc(Cl)c(O)c2C(C#Cc2ccccc2)(C(F)(F)F)N1 (centres undefined) No

Just wondering, is IC90 of COc1c(Cl)ccc2c1C(C#Cc1cccnc1)(C(F)(F)F)NC(=O)N2 (centres undefined) below 5 nM? No

Further cases:
Hi there! Is IC90 for COc1c(Cl)ccc2c1C(C#CC1CC1)(C(F)(F)F)NC(=O)N2 (centres undefined) below 5 nM, do you know? Yes

---

Documented IC90 across a set of compounds
# Tested on: Human immunodeficiency virus type 1 reverse transcriptase (Human immunodeficiency virus 1), Q72547 [K103N]
Number in nM, nothing else.

Below: 4 compounds and their reported IC90.
Dear colleague, I am looking for the recorded IC90 of the following compound: O=C1Nc2ccc(Cl)c3c2C(C(F)(F)F)(C=C(C2CC2)O3)N1 (stereo not given) 76

Dear colleague, I am looking for the recorded IC90 of the following compound: O=C1Nc2ccc(Cl)c(O)c2C(C#Cc2ccccc2)(C(F)(F)F)N1 (stereo not given) 30

Requested read-out: IC90. Entry: COc1c(Cl)ccc2c1C(C#CC1CC1)(C(F)(F)F)NC(=O)N2 (stereo not given) 7.5

Which IC90 is listed for O=C1Nc2ccc(Cl)c3c2C(C(F)(F)F)(C=C(c2ccccc2)O3)N1 (stereo not given) ? 46

Lab note: next compound to report on.
Item Fc1ccc2c3c1S/C(=C\c1cccnc1)C3(C(F)(F)F)NC(S)=N2 (stereo not given) has what recorded IC90? 84

---

# measuredOn: Human immunodeficiency virus type 1 reverse transcriptase (Human immunodeficiency virus 1, UniProt Q72547)
Item-by-item account of pIC50
Field pIC50 (float): negative decimal logarithm of the concentration in molar.

Consider the following illustrative entries.
Name the recorded pIC50 for O=C1Nc2ccc(Cl)c3c2C(C(F)(F)F)(C=C(c2ccccc2)O3)N1 (stereo not drawn) . 6.61

Which measured pIC50 value corresponds to O=C1Nc2ccc(Cl)c3c2C(C(F)(F)F)(C=C(c2cccnc2)O3)N1 (stereo not drawn) ? 6.91

Return reported pIC50; argument: COc1c(Cl)ccc2c1C(C#CC1CC1)(C(F)(F)F)NC(=O)N2 (stereo not drawn) 7.15

Need pIC50 of O=C1Nc2ccc(Cl)c(O)c2C(C#CC2CC2)(C(F)(F)F)N1 (stereo not drawn) , thanks. 7.27

Can you look up the measured pIC50 of O=C1Nc2ccc(Cl)c3c2C(C(F)(F)F)(C=C(C2CC2)O3)N1 (stereo not drawn) for me? 7.05

Recorded pIC50 of O=C1Nc2ccc(Cl)c(O)c2C(C#Cc2ccccc2)(C(F)(F)F)N1 (stereo not drawn) , please. 6.76

Report pIC50 for COc1c(Cl)ccc2c1C(C#Cc1cccnc1)(C(F)(F)F)NC(=O)N2 (stereo not drawn) please. 6.86

# evaluate next
Name the reported pIC50 value associated with the compound COc1c(Cl)ccc2c1C(C#Cc1ccccc1)(C(F)(F)F)NC(=O)N2 (stereo not drawn) 6.84
